# TARGET_OF_ASSAY: C-X-C chemokine receptor type 2 (Homo sapiens)
# Sequence (P25025 whole entry): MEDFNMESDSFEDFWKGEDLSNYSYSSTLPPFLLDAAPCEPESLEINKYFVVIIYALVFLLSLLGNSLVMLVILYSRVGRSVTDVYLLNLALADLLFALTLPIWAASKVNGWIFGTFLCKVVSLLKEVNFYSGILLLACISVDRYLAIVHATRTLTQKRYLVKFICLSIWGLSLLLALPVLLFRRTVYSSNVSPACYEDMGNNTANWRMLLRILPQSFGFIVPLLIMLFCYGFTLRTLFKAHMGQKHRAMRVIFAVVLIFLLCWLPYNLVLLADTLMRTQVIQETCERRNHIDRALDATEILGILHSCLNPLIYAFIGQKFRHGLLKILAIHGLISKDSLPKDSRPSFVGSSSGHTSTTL
pIC50: −log10 of the molar value.
ENDPOINT: pIC50

| CHEM_SMILES | VALUE |
| --- | --- |
| O=C(Nc1ccc(Cl)c(S(=O)(=O)N2CCNCC2)c1O)Nc1cccc(F)c1Cl | 8.29 |

====

Please consider the recorded Ki for Thromboxane A2 receptor (Homo sapiens, UniProt P21731) in what follows.
ENDPOINT: Ki

| COMPOUND | VALUE |
| --- | --- |
| O=C(O)Cc1ccc2c(c1)/C(=C/CN1CCCC(Cc3ccccc3)C1)c1ccccc1CO2 (stereo not drawn) | 740 nM |
| CN(C)C/C=C1\c2ccccc2COc2ccc(CC(=O)O)cc21 | > 1000 nM |
| O=C(O)Cc1ccc2c(c1)/C(=C/Cn1cnc3ccccc31)c1ccccc1CO2 | 15 nM |
